# maps each entry to its pIC50
- experimental-system: PRMT5 (Homo sapiens, UniProt O14744)
- Construct: purchased Viva (custom protein)
- Sequence (O14744 whole entry): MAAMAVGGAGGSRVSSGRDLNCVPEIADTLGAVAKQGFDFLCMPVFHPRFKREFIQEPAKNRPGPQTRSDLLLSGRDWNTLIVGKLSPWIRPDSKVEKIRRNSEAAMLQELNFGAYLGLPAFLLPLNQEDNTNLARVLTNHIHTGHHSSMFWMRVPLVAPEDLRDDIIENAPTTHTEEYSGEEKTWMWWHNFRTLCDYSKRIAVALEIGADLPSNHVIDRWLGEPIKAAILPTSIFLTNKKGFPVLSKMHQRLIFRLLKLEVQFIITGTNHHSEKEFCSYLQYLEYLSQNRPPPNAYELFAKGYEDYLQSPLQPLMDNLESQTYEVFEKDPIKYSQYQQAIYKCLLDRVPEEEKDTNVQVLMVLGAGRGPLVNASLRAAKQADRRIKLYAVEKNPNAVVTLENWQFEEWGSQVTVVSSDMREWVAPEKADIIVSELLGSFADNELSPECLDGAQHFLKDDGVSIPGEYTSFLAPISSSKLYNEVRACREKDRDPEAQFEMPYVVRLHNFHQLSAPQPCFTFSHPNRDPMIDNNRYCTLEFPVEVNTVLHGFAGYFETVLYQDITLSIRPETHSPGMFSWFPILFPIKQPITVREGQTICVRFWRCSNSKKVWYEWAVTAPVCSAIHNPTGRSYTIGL
- Sequence (Q9BQA1 whole entry partner): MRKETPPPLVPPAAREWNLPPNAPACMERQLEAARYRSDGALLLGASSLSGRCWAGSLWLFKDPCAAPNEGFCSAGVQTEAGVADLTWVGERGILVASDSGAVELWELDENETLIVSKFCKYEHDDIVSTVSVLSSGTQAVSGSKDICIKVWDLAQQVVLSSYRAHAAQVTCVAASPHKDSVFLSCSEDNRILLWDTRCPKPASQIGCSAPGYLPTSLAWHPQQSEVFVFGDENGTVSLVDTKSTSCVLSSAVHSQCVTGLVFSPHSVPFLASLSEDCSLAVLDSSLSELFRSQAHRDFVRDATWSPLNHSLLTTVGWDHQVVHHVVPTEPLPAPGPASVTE
- test-name: PRMT5 IC50 assay with no cofactor
- Assay type: biochemical
- setup-conditions: read-out: No Co-factor IC50
pIC50: −log10 of the molar value.

Solved entries:
O=C(NC[C@H](O)CN1CCc2cc(OCc3cnco3)c(F)c(F)c2C1)c1ccnc(NC2CCC2)c1 | ≤ 5.30
CCCN(C)c1nc(NC2COC2)cc(C(=O)NC[C@H](O)CN2CCc3cc(OCc4ocnc4C)ccc3C2)n1 | 5.30 to 6.30

Hello, I am looking for reported pIC50 with PRMT5 (Homo sapiens, UniProt O14744) for `CC(=O)N1CCC(Nc2cc(C(=O)NC[C@H](O)CN3CCc4c(ccc(OCc5ocnc5C)c4C)C3)ncn2)CC1` . Could you help?
≤ 5.30

Hello, I am looking for reported pIC50 with PRMT5 (Homo sapiens, UniProt O14744) for `Cc1ncoc1COc1ccc2c(c1Br)CCN(C[C@@H](O)CNC(=O)c1cc(NC3CCC3)ncn1)C2` . Could you help?
≤ 5.30

Hello, I am looking for reported pIC50 with PRMT5 (Homo sapiens, UniProt O14744) for `O=C(NC[C@H](O)CN1CCc2cc(OCc3cnco3)ccc2C1)c1ccnc(NC2CCCC2)c1` . Could you help?
≤ 5.30

Hello, I am looking for reported pIC50 with PRMT5 (Homo sapiens, UniProt O14744) for `CN1CCN(c2cc(C(=O)NC[C@H](O)CN3CCc4c(ccc(OCc5cnco5)c4Cl)C3)cc(NC3CCC3)n2)CC1` . Could you help?
5.30 to 6.30

Hello, I am looking for reported pIC50 with PRMT5 (Homo sapiens, UniProt O14744) for `CCN1CCN(c2nc(NC3COC3)cc(C(=O)NC[C@H](O)CN3CCc4c(ccc(OCc5cnco5)c4Cl)C3)n2)CC1` . Could you help?
5.30 to 6.30
